Here the recorded kon is given for each entry.
target: T1, Human VEGFA165 (human, UniProt P15692-4 27-191); experiment: SPR Biacore 8K, VEGFA165 amine-coupled on CM5, nanobody as analyte, 1:1 model
T1 construct: treated as the same molecule; also called antigen VEGFA
T1 sequence (P15692 other isoform, or with tags, fused parts or gaps limits assumed): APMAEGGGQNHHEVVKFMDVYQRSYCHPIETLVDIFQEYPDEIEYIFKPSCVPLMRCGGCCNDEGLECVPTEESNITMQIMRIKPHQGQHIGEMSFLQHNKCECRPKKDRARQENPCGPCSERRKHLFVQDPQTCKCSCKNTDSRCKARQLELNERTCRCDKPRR
Enter your answer as a number in M⁻¹ s⁻¹; do not include the unit.

Binder: V1 (VHH, also called candidate antibody V1; antibody V1) VHH: QLQLVESGGGSVQPGGSLRLSCEVSGRTFSSYTMGWFRQAPGKEREFVVAISKGGYKYDSVSLEARFTISKDNTKNTVYLQMNSLKPEDTAVYYCAATRAYGSSRLRLADTYEYWGQGTQVTVSS
Val: 409000

Binder: V1-com-78 (VHH, Humanized V1) VHH: EVQLVESGGGLVQPGGSLRLSCAASGRTFSSYTMGWFRQAPGKEREFVVAISKGGYKYDSVSLEARFTISRDNSKNTVYLQMNSLRAEDTAVYYCAATRAYGSSRLRLADTYEYWGQGTLVTVSS
Val: 347000

Binder: V1-com-87 (VHH, Humanized V1) VHH: EVQLVESGGGLVQPGGSLRLSCAASGRTFSSYTMGWFRQAPGKEREFVVAISKGGYKYDSVSLEARFTISRDNSKNTLYLQMNSLRPEDTAVYYCAATRAYGSSRLRLADTYEYWGQGTLVTVSS
Val: 360000

Lookup: What does the data say about its kon? Entry: V1-2m (VHH, Humanized V1) VHH: EVQLVESGGGLVQPGGSLRLSCAASGRTFSSYTMGWFRQAPGKEREFVVAISKGGYKYDSVSLEARFTISRDNSKNTVYLQMNSLRPEDTAVYYCAATRAYGSSRLRLADTYEYWGQGTLVTVSS
Found: 339000
